# Test system: MCF7 multi-cell spheroids with HUVEC/MSC, viability
# Method notes: Anticancer human tumor MCF7 cell line growth inhibition [IpAb];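 note: spheroids exposed to agents for seven days before readout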
# Condition context: curve of first compound; second compound 10 µM
Assay metric: IC50

Query: IC50 for Cn1nccc1Nc1nccc(-c2ccn(C(CO)c3ccc(Cl)c(F)c3)c(=O)c2)n1 (stereo not drawn) + CC(C)NCC(C(=O)N1CCN(c2ncnc3c2C(C)CC3O)CC1)c1ccc(Cl)cc1 ?
Reply: < 31.6 nM

Query: Check Cc1nc(NC(=O)N2CCCC2C(N)=O)sc1-c1ccnc(C(C)(C)C(F)(F)F)c1 (stereo not drawn) + CC(C)NCC(C(=O)N1CCN(c2ncnc3c2C(C)CC3O)CC1)c1ccc(Cl)cc1 too.
Reply: < 31.6 nM

Query: Check Cn1ncnc1[C@H]1c2n[nH]c(=O)c3cc(F)cc(c23)N[C@@H]1c1ccc(F)cc1 + CC(C)NCC(C(=O)N1CCN(c2ncnc3c2C(C)CC3O)CC1)c1ccc(Cl)cc1 too.
Reply: < 0.316 nM
